Below, each entry is listed alongside its reported pIC50.
target: CBP-BRD (Homo sapiens, UniProt Q92793); test: TR-FRET competition with acetylated peptide binding to CBP-BRD, with and without CRBN (cooperativity); parameters: GST-CBP (human, residues 1081-1197); made in house; host or cells: Rosetta (DE3) cells (E. coli); conditions: presence of high concentrations of CRBN C-terminal thalidomide binding domain; read-out: ternary IC50 (IC50[CRBN])
As a rule, pIC50 stands for the negative log10 of the concentration, concentration in M.

- Compound: "Cc1cc2c(NC(=O)c3cc(NC(=O)CCCCCCCCCCNc4cccc5c4C(=O)N(C4CCC(=O)NC4=O)C5=O)cc(-c4ccn(C)n4)c3)cccc2nn1 (centres unmarked)"
  Data value: 7.35

Note: attention shifts to another entry.
query: Entry Cc1cc2c(NC(=O)c3cc(NC(=O)CCCCCCCCCCNc4cccc5c4C(=O)N(C4CCC(=O)N(C)C4=O)C5=O)cc(-c4ccn(C)n4)c3)cccc2nn1 (centres unmarked) needs its pIC50 filled in; supply it.
result: 6.64
